// reported protein stability index for each item listed
Test system: Saccharomyces cerevisiae
protocolNotes: protein stability index of tFT-peptide fusion in wild type (PSI (0-1 scale)); higher = more stable (slower turnover)
setupConditions: genetic background: wild type
Please reply with the number alone, leaving off any unit.

Qu. # get_value(readout= protein stability index, system= Saccharomyces cerevisiae) for PDKRNHLWKLLN
Ans. 0.0949

Continuing:
Qu. Form field - read-out: protein stability index; system: Saccharomyces cerevisiae; submitted item: LKILSQKMNHQN
Ans. 0.232

Qu. What reported protein stability index corresponds to VRGAVGGWMLVG on Saccharomyces cerevisiae?
Ans. 0.456

Qu. Report protein stability index for PSLAASFQRVVG tested on Saccharomyces cerevisiae.
Ans. 0.692

Qu. Item: CTSCGYKFRTNC Test system: Saccharomyces cerevisiae Read-out: protein stability index Value: ?
Ans. 0.224

Qu. Could you share what protein stability index was measured for CTFCGYKFRTNN , tested on Saccharomyces cerevisiae?
Ans. 0.253

Qu. Param readout= protein stability index; system= Saccharomyces cerevisiae; entry= PSLAASFWRVVGW ; returns value.
Ans. 0.714

###

Test system: Saccharomyces cerevisiae
protocolNotes: protein stability index of tFT-peptide fusion (C-terminal peptide) (PSI (0-1 scale)); higher = more stable (slower turnover)
setupConditions: genetic background: doa10 deletion; temperature: 30 C
Entries and their protein stability index values follow.
// return just the number, without any unit appended

Observe how each entry below is paired with its result.
Qu. API: value(readout=protein stability index, system=Saccharomyces cerevisiae) for record VWVVRGFLGFGG
Ans. 0.437

Qu. Checklist item: protein stability index tested on Saccharomyces cerevisiae, entry VFVGGVSVLILF , value?
Ans. 0.413

Qu. Hi! What's the reported protein stability index for SFVVVFTFFFGC on Saccharomyces cerevisiae?
Ans. 0.221

Qu. Hi! What's the reported protein stability index for CVILVVISGLLG on Saccharomyces cerevisiae?
Ans. 0.178

Qu. Requested read-out protein stability index, target or system Saccharomyces cerevisiae, entry LQVPTLRLFVFF
Ans. 0.197

Qu. Look up protein stability index with Saccharomyces cerevisiae for this sequence: SVLAIWLTVTLK
Ans. 0.0915

Qu. Item: LFFWFMYLRRLI Test system: Saccharomyces cerevisiae Read-out: protein stability index Value: ?
Ans. 0.22

Qu. Give recorded protein stability index with Saccharomyces cerevisiae for the following sequence: VWFVFVCAVCVL
Ans. 0.138

Continuing:
Qu. Notebook: pull reported protein stability index for Saccharomyces cerevisiae, entry LRVLSVVRLSVW
Ans. 0.382

Qu. Reported protein stability index for Saccharomyces cerevisiae, given SLSALPRPPRLL ?
Ans. 0.698

Qu. Record lookup: for Saccharomyces cerevisiae, what protein stability index belongs to FLTSPSVWRYLF ?
Ans. 0.125

###

Tested on: Saccharomyces cerevisiae
protocolNotes: protein stability index of tFT-peptide fusion (C-terminal peptide) (PSI (0-1 scale)); higher = more stable (slower turnover)
setupConditions: genetic background: das1 deletion; temperature: 30 C
Answer NOT MET if protein stability index is under 0.7, and MET if it is 0.7 or more.

Qu. Decide: protein stability index of PGWDFNVQIFAI [HRD3 C-terminal 12 aa] >= 0.7?
Ans. NOT MET

Qu. Test whether the sequence SFLFGLYLLLHP [SPR2 C-terminal 12 aa] records protein stability index of 0.7 or higher.
Ans. NOT MET

Qu. Check if protein stability index >= 0.7 (inclusive). Item: ILDLDPRTEAYC [YGL260W C-terminal 12 aa]
Ans. MET

Qu. Determine whether this sequence has protein stability index no lower than 0.7: IASKNNWLPLQW [SIW14 C-terminal 12 aa]
Ans. MET

Qu. Test whether the sequence AKEESSDSENET [CDC123 C-terminal 12 aa] records protein stability index of 0.7 or higher.
Ans. NOT MET

Qu. Is reported protein stability index greater than or equal to 0.7 here: RLLSLAQPPVNF [YER165C-A C-terminal 12 aa]
Ans. MET

Qu. Decide: is the reported value of protein stability index for ILDSFEEWSDEE [HDA1 C-terminal 12 aa] equal to or greater than 0.7?
Ans. MET

Qu. Identify whether the reported protein stability index of the following sequence is 0.7 or greater: EGFIAKVMCCLD [RFC5 C-terminal 12 aa]
Ans. NOT MET

Qu. Quick check, protein stability index >= 0.7? TSTITTTITMTL [SHE10 C-terminal 12 aa]
Ans. NOT MET

###

Tested on: Saccharomyces cerevisiae
protocolNotes: protein stability index of tFT-peptide fusion (C-terminal peptide) (PSI (0-1 scale)); higher = more stable (slower turnover)
setupConditions: genetic background: wild type; temperature: 30 C
Measured protein stability index values are reported for all entries that follow.
Please state the value as a number alone, without comment.

Worked examples, 2 sequences total:
Qu. What value of protein stability index has been recorded for this entry: LLPSPLLLYSLS
Ans. 0.412

Qu. I would be grateful if you could share the reported protein stability index for SCFCFRVLLCSF .
Ans. 0.297

Continuing:
Qu. If you can, please state the reported protein stability index value of VRFSAVFVKVGV .
Ans. 0.402

Qu. Look at this sequence and give its reported protein stability index. SCLFMLFPLVSV
Ans. 0.409

Qu. What does the data say about its protein stability index? Entry: WLSWATRRIVLG
Ans. 0.401

Qu. Quick one: protein stability index of AISLPVEVLAFS ?
Ans. 0.293

Qu. Which protein stability index reading was recorded for the sequence DAIVLGSVVVCR ?
Ans. 0.39

Qu. Suppose we examine the sequence FVFCTCSFFFLW ; what protein stability index value has been reported?
Ans. 0.393

###

System: Saccharomyces cerevisiae
protocolNotes: protein stability index of tFT-peptide fusion (C-terminal peptide) (PSI (0-1 scale)); higher = more stable (slower turnover)
setupConditions: genetic background: wild type; temperature: 30 C
measure: protein stability index
Number, no unit, nothing else.

Please review the entries below; each comes with its answer.
Qu. Which protein stability index is reported for this sequence? ENDPWKVVRLAP [PDX3 C-terminal 12 aa]
Ans. 0.715

Qu. I am curious: what protein stability index value has been reported for LYVCIYISAFIK [FYV12 C-terminal 12 aa] ?
Ans. 0.143

Qu. I am curious: what protein stability index value has been reported for SFERLLVETIYS [ALG13 C-terminal 12 aa] ?
Ans. 0.624

Qu. Suppose we examine the sequence KHVMMDMQQPSQ [MRPS17 C-terminal 12 aa] ; what protein stability index value has been reported?
Ans. 0.674

Qu. Could you tell me which protein stability index is on file for ATSILLWYSNYS [CNM1 C-terminal 12 aa] ?
Ans. 0.697

Then there is this sequence:
Qu. Returns the measured protein stability index for the input sequence. Input: GIHPPEPIAAAA [KTI11 C-terminal 12 aa]
Ans. 0.357

###

Test system: Saccharomyces cerevisiae
protocolNotes: protein stability index of tFT-peptide fusion (C-terminal peptide) (PSI (0-1 scale)); higher = more stable (slower turnover)
setupConditions: genetic background: doa10 deletion; temperature: 30 C
measure: protein stability index
Keep the answer to the number alone.

Qu. Given the entry GGGSASGWRAAA , report its measured protein stability index.
Ans. 0.344

Qu. Looking for the measured protein stability index of DNLYSLEFMAIR , can you help?
Ans. 0.655

Qu. Dear colleague, I am looking for the recorded protein stability index of the following sequence: GTRREFVILYLF
Ans. 0.119

Qu. Please look up its protein stability index: ISPCLVRLWYRI
Ans. 0.103

Qu. protein stability index lookup needed for FWFSFSFLCHSY , thanks.
Ans. 0.386

Qu. For FSSRVFLIVGIY , what is its reported protein stability index?
Ans. 0.227

Next:
Qu. Could you share which protein stability index value was measured for SDGGVVRGGCRG ?
Ans. 0.549

Qu. Which protein stability index value belongs to TFVGWIVWLCGS ?
Ans. 0.216

Qu. Please give the measured protein stability index for this sequence: KRNLLYNIIVWI
Ans. 0.171

###

Measured protein stability index, listed per entry.
Test system: Saccharomyces cerevisiae
protocolNotes: protein stability index of tFT-peptide fusion in wild type (PSI (0-1 scale)); higher = more stable (slower turnover)
setupConditions: genetic background: wild type
Give only the figure.

Reference set, count: 3
Qu. protein stability index for ARWRVHLWRGAS ?
Ans. 0.294

Qu. Requested read-out: protein stability index. Entry: AITLPMCPLLLRQ
Ans. 0.34

Qu. Data request, read-out protein stability index, for AITLPMCPLLLRM
Ans. 0.172

Further cases:
Qu. Using the record for LVVYGSCVACIN , report its protein stability index.
Ans. 0.245

Qu. Entry ARWRVGLWRGAP has what protein stability index?
Ans. 0.662

Qu. I am curious: what protein stability index value has been reported for KKHKKGQKQKINA ?
Ans. 0.259

Qu. Given the entry KKHKKGMKQKIN , report its measured protein stability index.
Ans. 0.0523
